subject_of_test: h-GABA-A α5β3γ2 (Homo sapiens (Human), UniProt P18507+P31644)
Sequence (P31644 32-462): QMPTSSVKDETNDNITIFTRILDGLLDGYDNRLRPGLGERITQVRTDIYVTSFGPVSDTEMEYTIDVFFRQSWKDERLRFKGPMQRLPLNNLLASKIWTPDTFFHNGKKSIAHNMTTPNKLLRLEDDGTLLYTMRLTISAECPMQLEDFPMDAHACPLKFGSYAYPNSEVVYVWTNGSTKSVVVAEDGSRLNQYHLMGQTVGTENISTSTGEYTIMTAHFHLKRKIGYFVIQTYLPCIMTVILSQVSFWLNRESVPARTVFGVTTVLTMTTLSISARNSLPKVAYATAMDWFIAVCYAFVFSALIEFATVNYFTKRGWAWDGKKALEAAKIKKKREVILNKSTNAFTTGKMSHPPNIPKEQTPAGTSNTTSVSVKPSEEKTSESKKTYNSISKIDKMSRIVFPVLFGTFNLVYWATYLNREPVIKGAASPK
Sequence (P28472 26-473 partner): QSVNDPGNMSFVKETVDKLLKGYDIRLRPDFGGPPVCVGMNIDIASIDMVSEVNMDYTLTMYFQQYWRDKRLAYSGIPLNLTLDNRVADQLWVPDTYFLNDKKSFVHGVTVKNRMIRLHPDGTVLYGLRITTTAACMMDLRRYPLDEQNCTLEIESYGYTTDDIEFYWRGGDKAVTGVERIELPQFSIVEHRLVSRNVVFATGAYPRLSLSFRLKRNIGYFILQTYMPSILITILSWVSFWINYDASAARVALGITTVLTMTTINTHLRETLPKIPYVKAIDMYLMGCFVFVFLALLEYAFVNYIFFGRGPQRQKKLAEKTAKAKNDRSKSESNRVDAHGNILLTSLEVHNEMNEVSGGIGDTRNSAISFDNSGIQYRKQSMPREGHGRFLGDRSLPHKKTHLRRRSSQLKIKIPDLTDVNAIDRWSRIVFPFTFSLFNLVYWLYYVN
Sequence (P18507 40-475): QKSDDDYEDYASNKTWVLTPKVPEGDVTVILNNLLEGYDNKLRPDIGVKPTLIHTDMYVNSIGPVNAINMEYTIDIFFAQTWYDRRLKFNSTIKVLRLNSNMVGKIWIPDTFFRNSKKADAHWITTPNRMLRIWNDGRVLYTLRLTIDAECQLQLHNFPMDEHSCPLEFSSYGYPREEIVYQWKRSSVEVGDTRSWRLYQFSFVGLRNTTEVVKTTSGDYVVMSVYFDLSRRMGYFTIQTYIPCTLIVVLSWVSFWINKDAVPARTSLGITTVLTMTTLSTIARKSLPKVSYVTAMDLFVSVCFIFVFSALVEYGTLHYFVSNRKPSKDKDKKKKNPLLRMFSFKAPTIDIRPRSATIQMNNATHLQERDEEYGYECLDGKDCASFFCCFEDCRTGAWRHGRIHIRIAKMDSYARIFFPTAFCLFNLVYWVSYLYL
test_description: Two-electrode voltage clamp electrophysiology in Xenopus oocytes expressing GABAA receptors, modulation of GABA EC20 current
Assay type: cell-based
assay_context: % modulation of GABA EC20 = 100*(Fold increase−1), Xenopus oocytes
Method: Xenopus laevis oocytes at maturation stages V-VI were used for the expression of cloned mRNA encoding GABAA receptor subunits. Oocytes ready for RNA micro-injection were bought from Ecocyte, Castrop-Rauxel, Germany and stored in modified Barth's medium (composition in mM: NaCl 88, KCl 1, NaHCO32.4, HEPES 10, MgSO4 0.82, CaNO3 0.33, CaCl2) 0.33, pH=7.5) at 20° C. until the experiment. […]
Efficacy (GABA) % by entry:
State just the number; it will be interpreted in %.

>  <molecule>
O=C(N[C@H]1CCOC1)c1ccc(OCc2c(-c3ccc(Cl)nc3)noc2C2CC2)nn1 [Example 179]

>  <measurement_label>
Efficacy (GABA) %

>  <unit_name>
%

>  <measurement>
82

$$$$
>  <molecule>
Cc1ccc(-c2noc(C)c2COc2cc3c(cn2)C(=O)N(C2CCS(=O)(=O)CC2)C3)cn1 [Example 91]

>  <measurement_label>
Efficacy (GABA) %

>  <unit_name>
%

>  <measurement>
140

$$$$
>  <molecule>
COCC1(NC(=O)c2ccc(OCc3c(-c4ccc(C)nc4)noc3C)nn2)CC1 [Example 54]

>  <measurement_label>
Efficacy (GABA) %

>  <unit_name>
%

>  <measurement>
86

$$$$
>  <molecule>
Cc1ccc(-c2noc(C)c2COc2ccc(C(=O)N[C@H]3CCCC[C@@H]3O)nn2)cn1 [Example 24]

>  <measurement_label>
Efficacy (GABA) %

>  <unit_name>
%

>  <measurement>
63

$$$$
>  <molecule>
Cc1ccc(-c2nocc2COc2ccc(C(=O)NC3CCOCC3)cn2)cn1 [Example 44]

>  <measurement_label>
Efficacy (GABA) %

>  <unit_name>
%

>  <measurement>
54

$$$$

The recorded Efficacy (GABA) % for entry Cc1ccc(-c2noc(C)c2COc2cnc(C(=O)N[C@@H]3CCCOC3)cn2)cn1 [Example 98] equals 76

The recorded Efficacy (GABA) % for entry O=C(NC1CC2(COC2)C1)c1ccc(OCc2c(-c3ccc(Cl)nc3)noc2C2CC2)nn1 [Example 178] equals 73
